assay: Apparent total clearance in human; format: ADME, organism-based; details: in vivo, read-out: CLt/F (converted)
METRIC_NAME: CL/F (mL/min/kg)
Write the value in mL/min/kg as a bare number.

Data request: Please report the recorded CL/F for COc1c(N2CCNC(C)C2)c(F)cc2c(=O)c(C(=O)O)cn(C3CC3)c12 (stereo unspecified) .
Data returned: 1.67

* * *

test system: Mus musculus; assay: Apparent volume of distribution with respect to the bioavailability in mouse at 10 to 100 mg/kg, ip; format: ADME, organism-based; details: in vivo
METRIC_NAME: Vc/F (L/kg)
Write the value in L/kg as a bare number.

Data request: Vc/F of COc1c(N2CCNC(C)C2)c(F)cc2c(=O)c(C(=O)O)cn(C3CC3)c12 (stereo unspecified) on Mus musculus?
Data returned: 0.2

Values from ChEMBL document CHEMBL1151423
